Entry source: patent US20240308985A1

Would you mind telling me the reported IC50 of each entry?
Target: Monoacylglycerol Lipase (MAGL) (Homo sapiens (Human), UniProt Q99685)
Test: MAGL inhibition potency (IC50) assay with 4NPA substrate
Format: biochemical
Conditions: Method 11: Reaction Biology MAGL enzyme, 25 nM (name: Conc 20); read-out: MAGL Potency (Detection Method)

Query string: Recorded IC50 for `Cc1ccc(F)cc1-c1cc(C(F)(F)F)n(C2CC3(C2)CN(C(=O)c2ccc(F)cc2OC2CC2)C3)n1` with Monoacylglycerol Lipase (MAGL) (Homo sapiens (Human), UniProt Q99685), please?
Result string: 500 to 1000 nM

Query string: Recorded IC50 for `Cc1ccc(F)cc1-c1cc(C)n(C2CC3(C2)CN(C(=O)c2ccc(F)cc2OC(F)(F)F)C3)n1` with Monoacylglycerol Lipase (MAGL) (Homo sapiens (Human), UniProt Q99685), please?
Result string: 1000 to 5100 nM

Query string: Recorded IC50 for `Cc1cc(-c2cc(F)ccc2C)n(C2CC3(C2)CN(C(=O)c2ccc(F)cc2OCC(F)(F)F)C3)n1` with Monoacylglycerol Lipase (MAGL) (Homo sapiens (Human), UniProt Q99685), please?
Result string: 500 to 1000 nM

Query string: Recorded IC50 for `CCOc1cc(F)ccc1C(=O)N1CC2(CC(n3nc(-c4cc(F)ccc4C)cc3C)C2)C1` with Monoacylglycerol Lipase (MAGL) (Homo sapiens (Human), UniProt Q99685), please?
Result string: 500 to 1000 nM

* * *

Would you mind telling me the reported A: degree to which MAGL enzymatic activity returned following washout of test compounds of each entry?
Target: MAGL enzyme (Homo sapiens (Human))
Sequence (Q99685 whole entry): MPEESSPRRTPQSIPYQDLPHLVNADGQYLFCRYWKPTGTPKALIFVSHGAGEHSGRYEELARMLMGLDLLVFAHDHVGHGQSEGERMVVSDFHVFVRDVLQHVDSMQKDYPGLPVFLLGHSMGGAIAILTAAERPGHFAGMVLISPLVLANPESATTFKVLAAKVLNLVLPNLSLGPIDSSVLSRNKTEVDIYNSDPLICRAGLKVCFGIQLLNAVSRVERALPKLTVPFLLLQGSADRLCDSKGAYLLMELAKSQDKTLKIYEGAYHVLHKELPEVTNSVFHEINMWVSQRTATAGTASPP
Experiment: MAGL reversible inhibition assay (washout)
Format: biochemical
Settings: pre-washout compound concentration 1 μM
Note: the reply should be a number with no unit written.

Query string: Please report the recorded A: degree to which MAGL enzymatic activity returned following washout of test compounds for `O=C(c1cc(O)ccc1F)N1CC2(CC(n3cc(C4CC4)c(-c4ccccc4F)n3)C2)C1` .
Result string: 47

Query string: Please report the recorded A: degree to which MAGL enzymatic activity returned following washout of test compounds for `O=C(c1cc(O)ccc1F)N1CC2(CC(n3cc(C(F)(F)F)c(-c4ccccc4F)n3)C2)C1` .
Result string: 41

Query string: Please report the recorded A: degree to which MAGL enzymatic activity returned following washout of test compounds for `Cc1cn(C2CC3(C2)CN(C(=O)c2cc(O)ccc2F)C3)nc1-c1cc(F)ccc1Cl` .
Result string: 100

Query string: Please report the recorded A: degree to which MAGL enzymatic activity returned following washout of test compounds for Cc1cnn(C2CC3(C2)CN(C(=O)c2cc(O)ccc2F)C3)c1-c1cc(F)ccc1Cl (single isomer, unassigned) .
Result string: 155

* * *

Target: Monoacylglycerol Lipase (MAGL) (Homo sapiens (Human))
Assay: MAGL inhibition potency (IC50) assay with 4NPA substrate
Format: biochemical
Conditions: Method 6: Reaction Biology MAGL enzyme, 6 nM; read-out: MAGL Potency (Detection Method)
observation_type: IC50

Query string: Recorded IC50 for `Cc1ccccc1-c1c(C)cnn1C1CC2(C1)CN(C(=O)c1ccc(F)cc1OC1CC1)C2` with Monoacylglycerol Lipase (MAGL) (Homo sapiens (Human)), please?
Result string: 1000 to 5100 nM

Query string: Recorded IC50 for `Cc1cnn(C2CC3(C2)CN(C(=O)c2ccc(F)cc2OC2CC2)C3)c1-c1ccccc1F` with Monoacylglycerol Lipase (MAGL) (Homo sapiens (Human)), please?
Result string: 1000 to 5100 nM

Query string: Recorded IC50 for `Cc1ccc(F)cc1-c1cc(C)n(C2CC3(C2)CN(C(=O)c2cc(O)ccc2F)C3)n1` with Monoacylglycerol Lipase (MAGL) (Homo sapiens (Human)), please?
Result string: < 50 nM

Query string: Recorded IC50 for `Cc1ccc(F)cc1-c1c(C)cnn1C1CC2(C1)CN(C(=O)c1ccc(F)cc1OC1CC1)C2` with Monoacylglycerol Lipase (MAGL) (Homo sapiens (Human)), please?
Result string: 1000 to 5100 nM
